- tested-target: human ROR1 ectopically and stably expressed on mouse pre-B cell line 63-12 (Homo sapiens (Human)., UniProt Q01973)
- run-description: flow cytometry on cells

{"columns": ["binder", "binding result"],
 "data": [
  ["chimeric rabbit/human anti-human ROR2 Fab ERR2-TOP35 (Fab, V domains shown) VH: QSVKESEGGLFKPMDTLTLTCTVSGFSLNTYGVSWVRQAPGNGLEWIGAVGSSGATNYASWAKSRSTITRNTNENTVTLKMTSLTAADTATYFCARDGYYSSGWGPYFSIWGPGTLVTVSS VL: SFVLTQPASVQVNLGQTVSLTCTAETLRSSYASWYQQKPGQAPVLLIYRDTSRPSGVPDRFSGSSSGNTATLTISGAQAGDEADYYCATSDGSGSRYYVFGGGTQLTVT", "no binding"],
  ["chimeric rabbit/human anti-human ROR2 Fab XBR2-TOP72 (Fab, V domains shown) VH: QEQLEESGGRLVTPGTPLTLTCTVSGIDLSSNAMSWVRQAPGKGLEYVGFINGGGGVHYASWARGRFTISKTSTTVDLKITSPTTEDTATYFCARAGTTYYTSFNLWGPGTLVTISS VL: QFVLTQSPSASAALGSSAKLTCTLSSAHKTYTIAWYQQQQGEAPRLLMMLRTDGSYTKGTGVPDRFSGSSSGADRYLIISSVQADDAAGYYCGADYSGGYVFGGGTQLTVT", "no binding"],
  ["chimeric rabbit/human anti-human ROR2 Fab ERR2-302 (Fab, V domains shown) VH: QKQLVESGGGLVKPGGSLTLTCTVSGFSLSSYAIGWVRQAPGNGLEWIGIINSYGSTYYASWAKSRSTITRNTNLNTVTLKMTSLTAADTATYFCARSPYGYVSAWGYHRLDLWGQGTLVTISS VL: SYELTQLPSVSVSLGQTARITCGGASIGSKVVHWYQQKPGLAPGLLIYDDDERPSGVPDRFSGSNSGDTATLTISGAQAGDEAEYYCQLWDGSDVVFGGGTQLTVT", "no binding"]
]}
